# study target: PI3-kinase p110-delta/p85-alpha (Homo sapiens, UniProt O00329)
# Sequence (P27986 whole entry): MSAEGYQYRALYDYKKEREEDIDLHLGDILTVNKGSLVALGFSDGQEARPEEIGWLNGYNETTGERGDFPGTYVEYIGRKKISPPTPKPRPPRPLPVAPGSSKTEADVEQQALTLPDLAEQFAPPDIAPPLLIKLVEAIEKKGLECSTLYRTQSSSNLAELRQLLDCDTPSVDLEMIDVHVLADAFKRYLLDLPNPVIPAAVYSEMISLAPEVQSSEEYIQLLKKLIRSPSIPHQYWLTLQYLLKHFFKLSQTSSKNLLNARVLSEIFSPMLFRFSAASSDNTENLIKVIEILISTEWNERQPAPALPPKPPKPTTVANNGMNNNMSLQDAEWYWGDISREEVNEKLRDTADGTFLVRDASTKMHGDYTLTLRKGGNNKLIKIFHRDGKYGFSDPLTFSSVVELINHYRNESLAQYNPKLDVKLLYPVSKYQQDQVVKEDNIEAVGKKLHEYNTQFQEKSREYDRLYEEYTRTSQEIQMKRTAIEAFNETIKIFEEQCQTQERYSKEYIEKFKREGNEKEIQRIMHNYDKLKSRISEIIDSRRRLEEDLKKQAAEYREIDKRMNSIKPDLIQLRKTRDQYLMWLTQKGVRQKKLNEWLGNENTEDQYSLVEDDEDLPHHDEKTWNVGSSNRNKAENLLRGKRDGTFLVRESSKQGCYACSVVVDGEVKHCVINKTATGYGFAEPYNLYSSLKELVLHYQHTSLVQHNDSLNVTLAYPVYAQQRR
# Sequence (O00329 whole entry): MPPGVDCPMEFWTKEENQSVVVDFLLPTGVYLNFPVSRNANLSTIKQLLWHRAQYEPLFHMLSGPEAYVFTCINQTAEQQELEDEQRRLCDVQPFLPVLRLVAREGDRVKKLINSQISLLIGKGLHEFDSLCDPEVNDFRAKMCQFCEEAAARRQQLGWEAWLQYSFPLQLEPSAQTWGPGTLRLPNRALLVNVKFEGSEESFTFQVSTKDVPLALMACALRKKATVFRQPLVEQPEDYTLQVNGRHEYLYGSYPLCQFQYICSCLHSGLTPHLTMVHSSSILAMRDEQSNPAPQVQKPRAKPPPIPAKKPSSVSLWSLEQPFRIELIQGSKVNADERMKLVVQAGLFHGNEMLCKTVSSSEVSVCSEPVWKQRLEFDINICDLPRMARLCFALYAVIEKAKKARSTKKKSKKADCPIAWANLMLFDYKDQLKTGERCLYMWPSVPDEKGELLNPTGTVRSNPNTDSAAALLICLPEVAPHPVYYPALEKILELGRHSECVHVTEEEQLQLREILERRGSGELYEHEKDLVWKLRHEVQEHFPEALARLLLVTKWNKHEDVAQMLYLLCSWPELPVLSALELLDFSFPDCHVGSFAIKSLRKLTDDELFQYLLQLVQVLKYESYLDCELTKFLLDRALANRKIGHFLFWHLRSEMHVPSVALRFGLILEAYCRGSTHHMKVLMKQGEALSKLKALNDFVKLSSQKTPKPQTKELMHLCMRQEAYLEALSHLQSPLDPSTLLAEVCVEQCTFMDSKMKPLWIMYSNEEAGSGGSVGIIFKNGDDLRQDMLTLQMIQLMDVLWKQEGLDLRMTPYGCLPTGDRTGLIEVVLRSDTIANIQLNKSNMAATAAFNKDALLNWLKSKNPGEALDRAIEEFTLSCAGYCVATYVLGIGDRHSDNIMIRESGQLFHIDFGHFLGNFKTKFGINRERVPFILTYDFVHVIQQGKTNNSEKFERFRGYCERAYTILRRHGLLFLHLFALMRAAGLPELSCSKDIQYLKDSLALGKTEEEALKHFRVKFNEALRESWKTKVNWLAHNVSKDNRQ
# measurement notes: Inhibition of recombinant human N-terminal His6-tagged full length P110delta/full length untagged human p85alpha expressed in baculovirus infected Sf21 insect cells using PIP2 as substrate preincubated for 15 mins followed by substrate addition and measured after 60 mins by HTRF assay
In this section we review reported pKi values for a set of molecules.
Please treat pKi as minus the base-10 logarithm of the molar concentration.

COc1ncc(N2CCOCC2)cc1S(=O)(=O)Nc1ccnc(-c2ccc(CN3CCN(C(C)(C)C)CC3)cc2)c1 ... 10.60
COc1ncc(N2CCOCC2)cc1S(=O)(=O)Nc1ccnc(-c2ccc(CN3C[C@@H](C)O[C@@H](C)C3)cc2F)c1 ... 10.50
COc1ncc(C2=CCOCC2)cc1S(=O)(=O)Nc1cncc(-c2ccc(CN3C[C@@H](C)N(C)[C@@H](C)C3)cc2)c1 ... 10.80

**Q:** Return pKi (reported value) for this molecule: `COc1ncc(C2=CCOCC2)cc1S(=O)(=O)Nc1cncc(-c2ccc(CN3CCN(C(C)C)CC3)nc2)c1`
**A:** 10.60

**Q:** Determine from records and report pKi for `COc1ncc(C2=CCOCC2)cc1S(=O)(=O)Nc1cncc(-c2ccc(CN3CCNCC3)cc2)c1`
**A:** 9.90

**Q:** Give a short answer stating reported pKi for `COc1ncc(N2CCOCC2)cc1S(=O)(=O)Nc1ccnc(-c2ccc(CN3CCC(C(C)(C)O)CC3)cc2F)c1` .
**A:** 10.30

**Q:** Indicate its recorded pKi; the molecule in question is `COc1ncc(N2CCOCC2)cc1S(=O)(=O)Nc1ccnc(-c2ccc(CN3CCN(C(C)C)CC3)cc2F)c1`
**A:** 10.90

**Q:** Read the entry `COc1ncc(N2CCOCC2)cc1S(=O)(=O)Nc1ccnc(-c2ccc(CN3CCN(C(C)(C)C)CC3)cc2F)c1` and write its reported pKi.
**A:** 10.60

Sourced from ChEMBL document CHEMBL4825755
